The measured values listed here are drawn from ChEMBL document CHEMBL1201862.

# System: A498
# assay_procedure: NCI tumour cell line growth inhibition, 48 h
The source made the active and inactive calls. Rule as the data show it: active = GI50 up to about 1.1 µM and inactive = higher.
This listing pairs compounds with measured GI50.

compound	GI50
Cc1nn(-c2ccccc2)c2c1C(c1cc3ccccc3nc1Cl)NC(=O)N2 (stereo not drawn)	21.5 µM (inactive)
COc1cc2c(cc1O)CCN(C)[C@H]2Cc1ccc(Oc2c(O)c(OC)cc3c2C[C@H]2c4c(c(OC)c(OC)c(OC)c4-3)CCN2C)cc1 [THALIFABERIDINE]	7.41 µM (inactive)
N=C(N)Nc1ccc(CC(N)C(=O)O)cc1 (stereo not drawn)	> 12.5 µM (inactive)
C[n+]1ccccc1/C1=c2\cc/c([nH]2)=C(\c2cccc[n+]2C)C2=N/C(=C(/c3cccc[n+]3C)C3C=CC(N3)/C(c3cccc[n+]3C)=C3/C=CC1=N3)C=C2	> 100 µM (inactive)
Cc1c2ccccc2c(CO)c2cc(F)c3ccccc3c12	38.2 µM (inactive)
CN1S(=O)(=O)N(C)P12(N=P(CP(=NP13(N(C)S(=O)(=O)N1C)N(C)S(=O)(=O)N3C)(c1ccccc1)c1ccccc1)(c1ccccc1)c1ccccc1)N(C)S(=O)(=O)N2C	> 100 µM (inactive)
COC(=O)c1cnc(Cl)c([N+](=O)[O-])c1	21.4 µM (inactive)
OCC1OC(N2CCN(C3OC(CO)C(O)C(O)C3O)CC2)C(O)C(O)C1O (stereo not drawn)	> 100 µM (inactive)
O=c1c2ccccc2nc2sc(/N=C/C=C/c3ccccc3)nn12	> 100 µM (inactive)
CCC(C)C(NC(=O)C(CCCC[N+](=N)N)NC(=O)C(CCCC[N+](=N)N)NC(=O)c1ccc(OC)cc1)C(=O)NC(CCCC[N+](=N)N)C(=O)N1CCCC1C(=O)NC(CCCCN)C(=O)NC(CC(C)C)C(N)=O (stereo not drawn)	> 100 µM (inactive)
O=c1[nH]nc2c3n[nH]c(=O)n3c3ccccc3n12	47.1 µM (inactive)
CCOC(=O)NC(C(C(=O)OCC)C(=O)OCC)(C(F)(F)F)C(F)(F)F	> 100 µM (inactive)
O=[N+]([O-])c1cccc2nc3ccccc3c(NCCN(CCO)CCO)c12	0.00501 µM (active)
C=C(Br)CN(C(C)=O)C1CCCCC1	> 100 µM (inactive)
CN(CCCn1ccnc1[N+](=O)[O-])CCCn1ccnc1[N+](=O)[O-]	> 100 µM (inactive)
Cc1cc2c(c3c1c1ccccc1n3C)C(=O)C=CC2=O	47.5 µM (inactive)
CN(C)c1nc(Cl)c2c(-c3ccccc3)c(-c3ccccc3)oc2n1	> 100 µM (inactive)
CC(C)(C)OP(=O)(OC(C)(C)C)C(O)c1ccc(/C=C(\C#N)C(N)=O)cc1 (stereo not drawn)	> 100 µM (inactive)

----------
# Test system: NCI-H460
# assay_procedure: NCI tumour cell line growth inhibition, 48 h
The source made the active and inactive calls. Rule as the data show it: active = GI50 up to about 1.1 µM and inactive = higher.
Labels: yes (active), no (inactive)

molecule	qualitative_label
c1csc(-c2ccc(-c3cccc4nsnc34)s2)c1	no
CCC1=CC2CC(C(=O)OC)C1(N(C)C)C2=O (stereo not given)	no
Fc1ccc(C(OCCN2CCC3CCC(C2)N3CCCc2ccccc2)c2ccc(F)cc2)cc1 (stereo not given)	no
Cc1ncc(COP(=O)(O)O)c(/C=C2\SC(=S)NC2=O)c1O	no
O=c1[nH]n(CCc2ccccc2CCl)c2ccc([N+](=O)[O-])cc12	no
Cc1ccc2[nH]c3c(C)c4c(c(C)c3c2c1)CN(C)C=C4	no
COC(=O)CCC(=O)NC1c2cccc3cccc(c23)Cn2c(=O)n(C)c(=O)n21 (stereo not given)	no
Cn1c(CBr)nc2c1C(=O)c1nc(CBr)[nH]c(=O)c1C2=O	no
C[N+]1(CCN[N+]2(C)CCCCC2)CCc2ccccc2C1 (stereo not given)	no
CC(C)(C)[Si](C)(C)OCC1OC(n2ccc(=O)[nH]c2=O)C(O[Si](C)(C)C(C)(C)C)/C1=C/C#N (stereo not given)	no
CC(=O)Nc1ccc(-c2nnc(SCC(=O)Nc3ccc(Cl)cc3Cl)o2)cc1	no
N#C/C(=C\c1cccc(Br)c1)c1nc2ccccc2c(=O)[nH]1	no
CCOC(=O)c1[nH]c(COC(C)=O)c2c1CCCCCCCCCC2	no
O=C1CC(c2cccc(Cl)c2)Oc2ccccc21 (stereo not given)	no
CSc1ccc2c(cc1=O)[C@@H](NC(=O)c1ccc(N)cc1)CCc1cc(O)c(O)c(O)c1-2	no
c1ccc2c(c1)CCN1CCc3c([nH]c4ccccc34)C21 (stereo not given)	no
CN1CCN(C(=O)CCNC(=O)Cc2ccc(C(=O)c3ccccc3)cc2)CC1	no
CCCCCCNC(=O)C(C)C1CCC2(C)C=CC(=O)C(C)=C2C1O (stereo not given)	no
Cc1ccc(SCC(CSCCO)OCn2cnc3c2N=C(N)NC32OCCO2)cc1 (stereo not given)	no
COc1cc2c(cc1C1=NC(C)(C)CO1)OCO2	no
CN1S(=O)(=O)N(C)P12(N=P(CP(=NP13(N(C)S(=O)(=O)N1C)N(C)S(=O)(=O)N3C)(c1ccccc1)c1ccccc1)(c1ccccc1)c1ccccc1)N(C)S(=O)(=O)N2C	no
Cc1nc(C(N)=S)sc1/C(CC(=O)C(=O)Nc1cccc2ccc(O)cc12)=N\NC(=O)c1ccncc1	no
O=C1C=C(Nc2ccccc2C(=O)CC(=O)C(=O)Nc2cccc([N+](=O)[O-])c2)c2ccccc2C1=O	no
CC1=NN(C(=O)CC(=O)Nc2ccccc2Cl)C(=O)C1/N=N/c1ccc(C(=O)O)cc1 (stereo not given)	no
COc1ccc(/C=C2\CCC(CN(C)C)C2=O)cc1OC (stereo not given)	no
COc1ccc(C(=O)c2nc3ccccc3nc2N2CCN(c3ccccc3)CC2)cc1OC	no
O=C(NNC(=S)NC1CCCCC1)C12CC3CC(CC(C3)C1)C2	no
CN(CCCn1ccnc1[N+](=O)[O-])CCCn1ccnc1[N+](=O)[O-]	no
CCNCC(=O)Nc1ccc2c(c1)C(=O)c1ccc(NC(=O)CNCC)cc1C2=O	no
N=C(N)N/N=C/c1cnn(C(=N)N)c1	no
COc1ccc(-c2nnc3n(C)c4ccccc4n3c2=O)cc1	no
CC(=O)OCC1OC(n2c(N)c(C#N)c(C)c(C#N)c2=S)C(OC(C)=O)C(OC(C)=O)C1OC(C)=O (stereo not given)	no
Oc1ccccc1/C=N/c1ccc(Oc2ccc(Cl)cc2)c(Cl)c1	no
CC(C)=CCC/C(C)=C/CC/C(C)=C/CCC1(C)CCC([C@H](C)C(=O)O)OO1.CC1=C(CC/C(C)=C/CCC2(C)CCC([C@H](C)C(=O)O)OO2)C(C)(C)CCC1 (stereo not given in full)	no
CCOC(=O)c1sc2nc(SC)nc3c2c1N=CN3c1ccc(Br)cc1	no
O=c1ccn(-c2ccccn2)c(=O)n1-c1ccccn1	no
CCn1c2ccccc2c(=O)c2c(OC)ccc(OC)c21	no
CCCCC(Sc1cc(Cl)c(C)cc1S(=O)(=O)Nc1nc(N)n[nH]1)C(=O)OC (stereo not given)	no
CN1/C(=C/C(=O)c2ccc(Cl)cc2)Nc2ccccc21	no
COC1CC(CC2CCC(C)C(C(C)C(=O)O)O2)OC2(OC(C)(C3CCC(C)(C4OC(C5OC(O)(CO)C(C)CC5C)CC4C)O3)CC2C)C1C (stereo not given)	yes

----------
# Test system: HCT-15
property_label: GI50

In [3]: df
Out[3]:
                                    molecule  property_label     result
 0  CC(=O)OCC1OC(n2c(N)c(C#N)c(C)c(C#N)c2=S)C(OC(C)=O)C(OC(C)=O)C1OC(C)=O (stereo unspecified)            GI50   > 100 µM
 1  COc1cc2c(cc1OC)C1c3ccccc3CCCN1CC2 (stereo unspecified)            GI50   > 100 µM
 2             c1ccc(CCN2CCN=C2Cc2ccccc2)cc1            GI50   > 100 µM
 3                     CC(C)C(O)(C(C)C)C(C)C            GI50   > 100 µM
 4             COc1ccc(-c2nc(N3CCCC3)no2)cc1            GI50    58.9 µM
 5  CC1OC(n2cc(F)c(=O)[nH]c2=O)C=CC1=O (stereo unspecified)            GI50    20.3 µM
 6  OCCCCn1cc(Cn2ncc3c(NCc4ccccc4)ncnc32)nn1            GI50   > 100 µM
 7  Cc1ccc2[nH]c3c(C)c4c(c(C)c3c2c1)CN(C)C=C4            GI50    13.8 µM
 8  CCCNC(=S)N/N=C(\C)c1ccc(S(=O)(=O)N(C)c2ccccc2)cc1            GI50  > 88.5 µM
 9    COc1cccc(OC)c1/C=N\N1C(=O)c2ccccc2C1=O            GI50    32.1 µM
10  COC(=O)CCC(=O)NC1c2cccc3cccc(c23)Cn2c(=O)n(C)c(=O)n21 (stereo unspecified)            GI50   > 100 µM
